- test_system: hMC4-R (Homo sapiens (Human))
- Sequence (P32245 whole entry): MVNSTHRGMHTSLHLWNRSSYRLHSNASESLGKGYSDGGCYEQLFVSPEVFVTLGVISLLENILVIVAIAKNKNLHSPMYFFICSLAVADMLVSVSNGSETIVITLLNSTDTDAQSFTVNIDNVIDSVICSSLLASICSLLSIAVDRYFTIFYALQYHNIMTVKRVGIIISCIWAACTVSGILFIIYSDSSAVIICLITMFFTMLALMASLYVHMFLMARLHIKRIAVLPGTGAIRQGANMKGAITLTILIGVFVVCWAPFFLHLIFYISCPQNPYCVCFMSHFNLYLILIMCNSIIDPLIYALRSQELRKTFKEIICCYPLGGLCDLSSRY
- assay_overview: High and low density hMC4-R functional assay (cAMP, HEK293-T-REx-MC4-R cells)
- Format: cell-based
- test_conditions: 0.1 ng/mL Doxycycline (low density hMC4-R system); NDP-α-MSH = 100%; read-out: Intrinsic Activity (%)
endpoint_label: Emax (%)
Give the value in % but do not write % after it.

Task: What Emax value was documented for this compound, CC(=O)N[C@H](CCCNC(=N)N)C(=O)N[C@H]1CC(=O)NCCCC[C@@H](C(N)=O)NC(=O)[C@H](Cc2c[nH]c3ccccc23)NC(=O)[C@H](CCCNC(=N)N)NC(=O)[C@@H](Cc2cccc(Cl)c2)NC(=O)[C@H](CCC(N)=O)NC1=O [Example 80] ?
Result: 13

Task: Now this one: CC(=O)N[C@@H](CCCNC(=N)N)C(=O)N[C@H]1CCC(=O)NCCC[C@@H](C(N)=O)NC(=O)[C@H](Cc2c[nH]c3ccccc23)NC(=O)[C@H](CCCNC(=N)N)NC(=O)[C@@H](Cc2ccc(C(F)(F)F)cc2)NC(=O)[C@H](CCN)NC1=O [Example 20]
Result: 0.5

Task: Now this one: CC(=O)N[C@@H](CCCNC(=N)N)C(=O)N[C@H]1CCC(=O)NCCC[C@@H](C(N)=O)NC(=O)[C@H](Cc2c[nH]c3ccccc23)NC(=O)[C@H](CCCNC(=N)N)NC(=O)[C@@H](Cc2ccccc2Cl)NC(=O)[C@H](CCN)NC1=O [Example 1]
Result: 91

Task: Now this one: CC(=O)N[C@@H](CCCNC(=N)N)C(=O)N[C@H]1CCC(=O)NCCC[C@@H](C(N)=O)NC(=O)[C@H](Cc2c[nH]c3ccccc23)NC(=O)[C@H](CCCNC(=N)N)NC(=O)[C@@H](Cc2ccc(C)cc2C)NC(=O)[C@H](CCN)NC1=O [Example 21]
Result: 8

Task: Now this one: CC(=O)N[C@@H](CCCNC(=N)N)C(=O)N[C@H]1CCC(=O)NCCC[C@@H](C(=O)O)NC(=O)[C@H](Cc2c[nH]c3ccccc23)NC(=O)[C@H](CCCNC(=N)N)NC(=O)[C@@H](Cc2ccc(C#N)cc2)NC(=O)[C@H](CCC(N)=O)NC1=O [Example 86]
Result: 36

Task: Now this one: CC(=O)N[C@H](CCCNC(=N)N)C(=O)N[C@H]1CC(=O)NCCCC[C@@H](C(N)=O)NC(=O)[C@H](Cc2c[nH]c3ccccc23)NC(=O)[C@H](CCCNC(=N)N)NC(=O)[C@@H](Cc2ccccc2F)NC(=O)[C@H](CCC(N)=O)NC1=O [Example 82]
Result: 79

Task: Now this one: CC(=O)N[C@@H](CCCNC(=N)N)C(=O)N[C@H]1CCC(=O)NCCC[C@@H](C(N)=O)NC(=O)[C@H](Cc2c[nH]c3ccccc23)NC(=O)[C@H](CCCNC(=N)N)NC(=O)[C@@H](Cc2ccccc2F)NC(=O)[C@@H]2C[C@@H](O)CN2C1=O [Example 64]
Result: 57

Task: Now this one: CC(=O)N[C@@H](CCCNC(=N)N)C(=O)N[C@H]1CCC(=O)NCCC[C@@H](C(N)=O)NC(=O)[C@H](Cc2c[nH]c3ccccc23)NC(=O)[C@H](CCCNC(=N)N)NC(=O)[C@@H](Cc2ccccc2F)NC(=O)[C@H](CO)NC1=O [Example 58]
Result: 67

Task: Now this one: CC(=O)N[C@@H](CCCNC(=N)N)C(=O)N[C@H]1CCCNC(=O)CC[C@@H](C(N)=O)NC(=O)[C@H](Cc2c[nH]c3ccccc23)NC(=O)[C@H](CCCNC(=N)N)NC(=O)[C@@H](Cc2ccccc2Cl)NC(=O)[C@H](CCC(N)=O)NC1=O [Example 112]
Result: 83

Task: Now this one: CC(=O)N[C@@H](CCCNC(=N)N)C(=O)N[C@H]1CCC(=O)NCCC[C@@H](C(N)=O)NC(=O)[C@H](Cc2c[nH]c3ccccc23)NC(=O)[C@H](CCCNC(=N)N)NC(=O)[C@@H](Cc2ccc(C)cc2)NC(=O)[C@H](CCN)NC1=O [Example 15]
Result: 16

Task: Now this one: CC(=O)N[C@@H](CCCNC(=N)N)C(=O)N[C@H]1CCC(=O)NCCC[C@@H](C(N)=O)NC(=O)[C@H](Cc2c[nH]c3ccccc23)NC(=O)[C@H](CCCNC(=N)N)NC(=O)[C@@H](Cc2cc(F)c(F)c(F)c2)NC(=O)[C@H](CC(N)=O)NC1=O [Example 95]
Result: 42

Task: Now this one: CC(=O)N[C@@H](CCCNC(=N)N)C(=O)N[C@H]1CCC(=O)NCCC[C@@H](C(N)=O)NC(=O)[C@H](Cc2c[nH]c3ccccc23)NC(=O)[C@H](CCCNC(=N)N)NC(=O)[C@@H](Cc2ccc(F)cc2)NC(=O)[C@H](CCS(C)(=O)=O)NC1=O [Example 68]
Result: 55

Task: Now this one: CC(=O)N[C@@H](CCCNC(=N)N)C(=O)N[C@H]1CCC(=O)NCCC[C@@H](C(N)=O)NC(=O)[C@H](Cc2c[nH]c3ccccc23)NC(=O)[C@H](CCCNC(=N)N)NC(=O)[C@@H](Cc2ccc(C(C)(C)C)cc2)NC(=O)[C@H](CCN)NC1=O [Example 30]
Result: 2

Task: Now this one: CC(=O)N[C@H](CCCNC(=N)N)C(=O)N[C@H]1CCCNC(=O)CC[C@@H](C(N)=O)NC(=O)[C@H](Cc2c[nH]c3ccccc23)NC(=O)[C@H](CCCNC(=N)N)NC(=O)[C@@H](Cc2cccc(Cl)c2)NC(=O)[C@H](Cc2c[nH]cn2)NC1=O [Example 51]
Result: 22

Task: Now this one: CC(=O)N[C@@H](CCCNC(=N)N)C(=O)N[C@H]1CCC(=O)NCCC[C@@H](C(=O)O)NC(=O)[C@H](Cc2c[nH]c3ccccc23)NC(=O)[C@H](CCCNC(=N)N)NC(=O)[C@@H](Cc2cc(F)c(F)c(F)c2)NC(=O)[C@H](CCC(N)=O)NC1=O [Example 97]
Result: 49

Reference source: patent US9040663B2
